Data credit: patent US20250353873A1

Assignment: determine reported APOE RNA (% control) Cortex for the given substances.
- Tested on: human APOE RNA
- ASSAY_PROTOCOL: Potency (dose response, ED50) in APOE C57BL/6NTac-Apoeem7250 knock-in mice, 8 weeks (Example 15)
- Assay type: in vivo
- STATED_CONDITIONS: cortex, ICV dose 700 μg
Strand notation (5' to 3'): a small letter for the sugar, then the base; units joined by * are phosphorothioate-linked, units joined directly phosphodiester-linked; [ ] holds rarer units or linkages, { } end groups; capitals alone tell only the bases. [ms] = mesyl phosphoramidate linkage; e = 2'-O-(2-methoxyethyl) (MOE); k = constrained ethyl (cEt); [5mC] = 5-methylcytosine; d = 2'-deoxy (DNA)
Be sure to follow the number with its unit.

Lookup: Which APOE RNA (% control) Cortex is reported for this substance? TezTeoGeoGksTdsGdzAdzAdzTds^mCdsTdsTdsTdsAdzTksTksAesAesAes^mCe (antisense eT[ms]eTeGkG*dT*dG[ms]dA[ms]dA[ms]dT*d[5mC]*dT*dT*dT*dA[ms]kT*kT*eA*eA*eA*e[5mC]) [Compound No. 1809814]
Found: 37 % control

Lookup: Which APOE RNA (% control) Cortex is reported for this substance? 1785599: modified oligonucleotide complementary to human APOE RNA (k[5mC]*kT*kT*dG[ms]dG[ms]dT[ms]dG[ms]dA[ms]dA[ms]dT[ms]d[5mC]*dT*dT*dT*dA*dT*kT*kA*dA[ms]kA; antisense) [compound 1785599]
Found: 25 % control

###

- Test system: human APOE RNA
- ASSAY_PROTOCOL: Duration of action study in APOE C57BL/6NTac-Apoeem7250 knock-in mice (Example 18)
- Assay type: in vivo
- STATED_CONDITIONS: cortex; 300 μg ICV; 112 days post-dose
Strand notation (5' to 3'): a small letter for the sugar, then the base; units joined by * are phosphorothioate-linked, units joined directly phosphodiester-linked; [ ] holds rarer units or linkages, { } end groups; capitals alone tell only the bases. [ms] = mesyl phosphoramidate linkage; e = 2'-O-(2-methoxyethyl) (MOE); k = constrained ethyl (cEt); [5mC] = 5-methylcytosine; d = 2'-deoxy (DNA)
Assignment: determine reported APOE RNA (% control) Cortex for the given substances.
Quick note: give the figure in % control, leave out the unit.

Lookup: Which APOE RNA (% control) Cortex is reported for this substance? 1809636 (kA*e[5mC]eTeT*eG*kG*dT*dG[ms]dA[ms]dA[ms]dT*d[5mC]*dT*dT*dT*dA[ms]kT*kT*eA*kA; antisense) [Compound 1809636]
Found: 33

Lookup: Which APOE RNA (% control) Cortex is reported for this substance? 1810064: mixed MOE/cEt gapmer CTTGGTGAATCTTTATTAAAC, sugar eeeeekddddddddddeeeee, linkages ssoooszzzssssszsooss (e[5mC]*eT*eTeGeGkT*dG[ms]dA[ms]dA[ms]dT*d[5mC]*dT*dT*dT*dA[ms]dT*eTeAeA*eA*e[5mC]) [compound 1810064]
Found: 62

Lookup: Which APOE RNA (% control) Cortex is reported for this substance? 1809637 (kA*e[5mC]eTeT*eG*kG*dT*dG[ms]dA[ms]dA[ms]dT*d[5mC]*dT*dT*dT*dA[ms]kT*kT*kA*kA; antisense) [Compound 1809637]
Found: 42

Lookup: Which APOE RNA (% control) Cortex is reported for this substance? TezTeoGeoGksTdsGdzAdzAdzTds^mCdsTdsTdsTdsAdzTksTksAesAesAes^mCe (antisense eT[ms]eTeGkG*dT*dG[ms]dA[ms]dA[ms]dT*d[5mC]*dT*dT*dT*dA[ms]kT*kT*eA*eA*eA*e[5mC]) [Compound No. 1809814]
Found: 57

###

- System: human APOE RNA
- ASSAY_PROTOCOL: Dose-dependent inhibition of human APOE RNA in HepG2 cells, electroporation, 50,000 cells per well, RT-PCR normalized to GAPDH (Example 4, Tables 8-10)
- Format: cell-based
- STATED_CONDITIONS: 1,280 nM; HepG2, electroporation, 24-hour treatment
Strand notation (5' to 3'): a small letter for the sugar, then the base; units joined by * are phosphorothioate-linked, units joined directly phosphodiester-linked; [ ] holds rarer units or linkages, { } end groups; capitals alone tell only the bases. [ms] = mesyl phosphoramidate linkage; k = constrained ethyl (cEt); [5mC] = 5-methylcytosine; d = 2'-deoxy (DNA)
VALUE_KIND: APOE RNA (% UTC)
Quick note: give the figure in % UTC, leave out the unit.

Lookup: Which APOE RNA (% UTC) is reported for this substance? 1746797 (k[5mC]*kT*dT[ms]dG[ms]dG[ms]kT*dG[ms]dA[ms]dA[ms]dT*d[5mC]*dT*dT*dT*dA[ms]dT*kT*dA[ms]kA*kA; antisense) [Compound 1746797]
Found: 71

Lookup: Which APOE RNA (% UTC) is reported for this substance? 1753989 (k[5mC]*dT[ms]kT*dG[ms]kG*dT*dG[ms]dA[ms]dA[ms]dT*d[5mC]*dT*dT*dT*dA[ms]kT*dT[ms]kA*dA[ms]kA; antisense) [Compound 1753989]
Found: 49

Lookup: Which APOE RNA (% UTC) is reported for this substance? 1746795 (k[5mC]*kT*dT[ms]kG*dG[ms]dT[ms]dG[ms]dA[ms]dA[ms]dT*d[5mC]*dT*dT*dT*dA[ms]dT*kT*dA[ms]kA*kA; antisense) [Compound 1746795]
Found: 57

Lookup: Which APOE RNA (% UTC) is reported for this substance? 1746804 (k[5mC]*kT*kT*dG[ms]dG[ms]dT[ms]dG[ms]dA[ms]dA[ms]dT*d[5mC]*dT*dT*dT*dA[ms]dT*dT[ms]kA*kA*kA; antisense) [Compound 1746804]
Found: 45

Lookup: Which APOE RNA (% UTC) is reported for this substance? 1747051 (k[5mC]*kT*dT[ms]kG*dG[ms]kT*dG[ms]dA[ms]dA[ms]dT*d[5mC]*dT*dT*dT*dA[ms]dT*kT*dA[ms]dA[ms]kA; antisense) [Compound 1747051]
Found: 76

Lookup: Which APOE RNA (% UTC) is reported for this substance? 1746784 (k[5mC]*kT*kT*dG[ms]dG[ms]dT[ms]dG[ms]dA[ms]dA[ms]dT*d[5mC]*dT*dT*dT*dA[ms]dT*kT*kA*dA[ms]kA; antisense) [Compound 1746784]
Found: 29

Lookup: Which APOE RNA (% UTC) is reported for this substance? 1746793 (k[5mC]*dT[ms]dT[ms]dG[ms]kG*kT*dG[ms]dA[ms]dA[ms]dT*d[5mC]*dT*dT*dT*dA[ms]dT*kT*kA*dA[ms]kA; antisense) [Compound 1746793]
Found: 34

Lookup: Which APOE RNA (% UTC) is reported for this substance? 1746803 (k[5mC]*dT[ms]dT[ms]kG*dG[ms]kT*dG[ms]dA[ms]dA[ms]dT*d[5mC]*dT*dT*dT*dA[ms]dT*kT*dA[ms]kA*kA; antisense) [Compound 1746803]
Found: 31

Lookup: Which APOE RNA (% UTC) is reported for this substance? 1746802 (k[5mC]*dT[ms]dT[ms]dG[ms]kG*kT*dG[ms]dA[ms]dA[ms]dT*d[5mC]*dT*dT*dT*dA[ms]dT*kT*dA[ms]kA*kA; antisense) [Compound 1746802]
Found: 36

Lookup: Which APOE RNA (% UTC) is reported for this substance? 1746807 (k[5mC]*kT*dT[ms]dG[ms]dG[ms]kT*dG[ms]dA[ms]dA[ms]dT*d[5mC]*dT*dT*dT*dA[ms]dT*dT[ms]kA*kA*kA; antisense) [Compound 1746807]
Found: 52

Lookup: Which APOE RNA (% UTC) is reported for this substance? 1746800 (k[5mC]*dT[ms]kT*dG[ms]dG[ms]kT*dG[ms]dA[ms]dA[ms]dT*d[5mC]*dT*dT*dT*dA[ms]dT*kT*dA[ms]kA*kA; antisense) [Compound 1746800]
Found: 87

Lookup: Which APOE RNA (% UTC) is reported for this substance? 1746801 (k[5mC]*dT[ms]dT[ms]kG*kG*dT[ms]dG[ms]dA[ms]dA[ms]dT*d[5mC]*dT*dT*dT*dA[ms]dT*kT*dA[ms]kA*kA; antisense) [Compound 1746801]
Found: 33

Lookup: Which APOE RNA (% UTC) is reported for this substance? 1746791 (k[5mC]*dT[ms]dT[ms]kG*kG*dT[ms]dG[ms]dA[ms]dA[ms]dT*d[5mC]*dT*dT*dT*dA[ms]dT*kT*kA*dA[ms]kA; antisense) [Compound 1746791]
Found: 35

Lookup: Which APOE RNA (% UTC) is reported for this substance? 1746786 (k[5mC]*kT*dT[ms]dG[ms]kG*dT[ms]dG[ms]dA[ms]dA[ms]dT*d[5mC]*dT*dT*dT*dA[ms]dT*kT*kA*dA[ms]kA; antisense) [Compound 1746786]
Found: 39

Lookup: Which APOE RNA (% UTC) is reported for this substance? 1746811 (k[5mC]*dT[ms]dT[ms]kG*kG*dT[ms]dG[ms]dA[ms]dA[ms]dT*d[5mC]*dT*dT*dT*dA[ms]dT*dT[ms]kA*kA*kA; antisense) [Compound 1746811]
Found: 47

Lookup: Which APOE RNA (% UTC) is reported for this substance? 1746799 (k[5mC]*dT[ms]kT*dG[ms]kG*dT[ms]dG[ms]dA[ms]dA[ms]dT*d[5mC]*dT*dT*dT*dA[ms]dT*kT*dA[ms]kA*kA; antisense) [Compound 1746799]
Found: 52

Lookup: Which APOE RNA (% UTC) is reported for this substance? 1747052 (k[5mC]*dT[ms]kT*kG*dG[ms]kT*dG[ms]dA[ms]dA[ms]dT*d[5mC]*dT*dT*dT*dA[ms]dT*kT*dA[ms]dA[ms]kA; antisense) [Compound 1747052]
Found: 53

Lookup: Which APOE RNA (% UTC) is reported for this substance? 1746812 (k[5mC]*dT[ms]dT[ms]dG[ms]kG*kT*dG[ms]dA[ms]dA[ms]dT*d[5mC]*dT*dT*dT*dA[ms]dT*dT[ms]kA*kA*kA; antisense) [Compound 1746812]
Found: 51

Lookup: Which APOE RNA (% UTC) is reported for this substance? 1747053 (k[5mC]*dT[ms]dT[ms]kG*kG*kT*dG[ms]dA[ms]dA[ms]dT*d[5mC]*dT*dT*dT*dA[ms]dT*kT*dA[ms]dA[ms]kA; antisense) [Compound 1747053]
Found: 57

Lookup: Which APOE RNA (% UTC) is reported for this substance? 1746790 (k[5mC]*dT[ms]kT*dG[ms]dG[ms]kT*dG[ms]dA[ms]dA[ms]dT*d[5mC]*dT*dT*dT*dA[ms]dT*kT*kA*dA[ms]kA; antisense) [Compound 1746790]
Found: 20
